- TARGET_OR_TEST_SYSTEM: Somatostatin Receptor 2 (SSTR2) (Homo sapiens)
- TEST_METHOD_NOTES: Biochemical Assay for Activation of Somatostatin Receptor 2 (SSTR2), Cisbio HTRF cAMP assay
- CONDITION: average pEC50; HTRF cAMP assay in stably-transfected cell line expressing SSTR2; cells incubated with compounds for 1-2h
pEC50: −log10 of the molar value.
READOUT_NAME: pEC50

(A) Cn1c(-c2cccc(C#N)c2O)nc2c(N3CCC(N)CC3)c(-c3cc(F)cc(F)c3)cnc21 [Compound 43]
(B) Cc1cc(F)cc(-c2cnc3ccc(-c4cc(F)cc(C(N)=O)c4)cc3c2O[C@@H]2CC[C@@H](N)C2)c1 [Compound 4]
INPUT: Please compare: A and B . Report which one has the smaller pEC50 value. When you have decided, please share the label of that item.
OUTPUT: A
(A: 5.20, B: 9.40)

(a) CNCCCNc1c(C(=O)Nc2ccc(F)c(F)c2)cncc1-c1cc(F)cc(F)c1 [Compound 117]
(b) Cc1cc(F)cc(-c2cnc3ccc4cc3c2N2CCC(CC2)NCCCNC(=O)c2ccccc2-4)c1 [Compound 86]
INPUT: Of the two listed items, a and b , which carries the larger pEC50 figure? State the label of the item chosen.
OUTPUT: a

====

- TARGET_OR_TEST_SYSTEM: Somatostatin Receptor 2 (SSTR2) (Homo sapiens, UniProt P30874)
- Sequence (P30874 whole entry, species assumed): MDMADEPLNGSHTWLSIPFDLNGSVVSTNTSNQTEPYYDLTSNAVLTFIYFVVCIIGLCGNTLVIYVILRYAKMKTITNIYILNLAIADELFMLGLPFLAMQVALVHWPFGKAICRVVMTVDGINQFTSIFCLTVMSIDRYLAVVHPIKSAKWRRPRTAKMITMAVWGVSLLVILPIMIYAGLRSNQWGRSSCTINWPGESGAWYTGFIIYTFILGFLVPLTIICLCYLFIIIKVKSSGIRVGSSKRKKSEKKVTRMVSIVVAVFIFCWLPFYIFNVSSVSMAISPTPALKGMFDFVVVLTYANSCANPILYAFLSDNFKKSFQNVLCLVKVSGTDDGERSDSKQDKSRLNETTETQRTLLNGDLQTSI
- TEST_METHOD_NOTES: Biochemical Assay for Activation of Somatostatin Receptor 2 (SSTR2), Cisbio HTRF cAMP assay
- CONDITION: average pEC50; HTRF cAMP assay in stably-transfected cell line expressing SSTR2; cells incubated with compounds for 1-2h
READOUT_NAME: EC50 (nM)

// solved cases for EC50 follow
Cc1cc(F)cc(-c2cnc3c(c2N2CCC(N)CC2)C(=O)N(c2ccc(F)c(F)c2)CC3)c1 [Compound 111]: 15.8
COc1cc(F)cc(-c2cnc3c(nc(-c4cc(F)cc(C(N)=O)c4)n3C)c2N2CCC(N)CC2)c1 [Compound 33]: 1580

(1) NC(=O)c1cc(F)cc(-c2ccc3ncc(-c4cc(F)cc(F)c4)c(O[C@@H]4CC[C@H](N)C4)c3c2)c1 [Compound 10]
(2) Cc1cc(F)cc(-c2cnc3ccc(-c4cc(F)cc(C(N)=O)c4)cc3c2O[C@H]2CC[C@H](N)C2)c1 [Compound 1]
INPUT: Field: entry with larger EC50 (options 1 / 2 ). Select an item and report its label.
OUTPUT: 1

====

- TARGET_OR_TEST_SYSTEM: Somatostatin Receptor 2 (SSTR2) (Homo sapiens, UniProt P30874)
- TEST_METHOD_NOTES: Biochemical Assay for Activation of Somatostatin Receptor 2 (SSTR2), Cisbio HTRF cAMP assay
- CONDITION: average pEC50; HTRF cAMP assay in stably-transfected cell line expressing SSTR2; cells incubated with compounds for 1-2h
pEC50: −log10 of the molar value.
READOUT_NAME: pEC50

See these solved cases before continuing.
Cc1cc(F)cc(-c2cnc3ccc(-c4cccc(C#N)c4O)cc3c2O[C@@H]2CC[C@H](N)C2)c1: 8.50
NC(=O)c1cc(F)cc(-c2nc3c(N4CCC(N)CC4)c(-c4cc(F)cc(F)c4)cnc3[nH]2)c1: 5.50

(P) NCC1CCCCC1Oc1c(-c2cc(F)cc(F)c2)cnc2ccc(-c3cc(F)cc(F)c3)cc12 (stereo not shown)
(Q) CN1CCCCNC2CCN(CC2)c2c(-c3cc(F)cc(F)c3)cnc3ccc(cc23)-c2cccc(c2)C1=O
INPUT: Given P and Q , report the one with the higher recorded pEC50. Field: selected label. Fill in the label of the entry you choose.
OUTPUT: Q
(Q: 5.70, P: 5.40)
